EXPERIMENTAL SYSTEM: Sialidase (Clostridium perfringens)
ASSAY NOTES: Inhibition of Clostridium perfringenes neuraminidase activity using 4-methylumbelliferyl-1-alpha-D-N-acetylneuramic acid sodium salt hydrate as substrate by fluorescence based assay
MEASUREMENT SETUP: read-out: IC50
pIC50: −log10 of the molar value.
# maps each entry to its pIC50
QUANTITY KIND: pIC50

>  <COMPOUND>
CCC(CC)[C@H](NC(C)=O)[C@@H]1[C@H](O)[C@@H](C(=O)O)C[C@H]1NC(=N)N [PERAMIVIR ANHYDROUS]

>  <MEASURED VALUE>
4.40

$$$$
>  <COMPOUND>
CCOC(=O)C1=C[C@@H](OC(CC)CC)[C@H](NC(C)=O)[C@@H](N)C1

>  <MEASURED VALUE>
4.21

$$$$

----------
# maps each entry to its IC50
EXPERIMENTAL SYSTEM: Sialidase (Clostridium perfringens, UniProt P10481)
Sequence (P10481 whole entry): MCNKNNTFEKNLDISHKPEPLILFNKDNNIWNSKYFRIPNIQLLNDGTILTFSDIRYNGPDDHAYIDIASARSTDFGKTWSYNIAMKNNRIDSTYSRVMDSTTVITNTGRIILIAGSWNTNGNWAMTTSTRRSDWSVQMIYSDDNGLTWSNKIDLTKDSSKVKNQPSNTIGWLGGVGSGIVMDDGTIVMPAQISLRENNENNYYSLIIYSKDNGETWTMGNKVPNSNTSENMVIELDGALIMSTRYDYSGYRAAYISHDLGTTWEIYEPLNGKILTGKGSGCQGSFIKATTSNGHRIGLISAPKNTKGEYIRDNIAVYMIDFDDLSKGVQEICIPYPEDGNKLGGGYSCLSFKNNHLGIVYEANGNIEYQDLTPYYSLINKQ
ASSAY NOTES: Inhibition of Clostridium perfringenes neuraminidase activity using 4-methylumbelliferyl-1-alpha-D-N-acetylneuramic acid sodium salt hydrate as substrate by fluorescence based assay
MEASUREMENT SETUP: read-out: pIC50 (converted)
QUANTITY KIND: IC50

>  <SMILES NOTATION>
CCCN[C@@H]1C=C(C(=O)O)C[C@H](N)[C@H]1NC(C)=O

>  <MEASURED VALUE>
200 nM

$$$$
>  <SMILES NOTATION>
CC(=O)N[C@@H]1[C@@H](N)CC(C(=O)O)=C[C@H]1OCC(C)C

>  <MEASURED VALUE>
200 nM

$$$$
>  <SMILES NOTATION>
CC(=O)N[C@H]1[C@H](N(C)C2CCCCC2)C=C(C(=O)O)C[C@@H]1N

>  <MEASURED VALUE>
200 nM

$$$$
